These entries and their values trace back to the supplement of paper PMC4466140.

target: ScLsb2; experiment: SPOT peptide array binding signal intensity (averaged, normalized) (arbitrary units (background-subtracted, floor 0; scale differs between SH3 domains)); higher = stronger binding of the SH3 domain to the peptide
Consider the following binders; for each one, report its SPOT peptide array binding signal intensity.
One number for each entry.

See these solved cases before continuing.
# BINDER, ASSAY VALUE
measured = [
    ("ISRRRLPVIMHRLKM", 2),
    ("RAPPPVPKKPSSRIA", 1030),
    ("RKQRSIPLSPIVPES", 2),
    ("ALRRRLPVTRSKINW", 15.5),
]

State the recorded SPOT peptide array binding signal intensity for every item in the following list.
1. APERAVPILPPRNNV
2. KRRTSLFPWLHKPGI
3. GLRRARYKFPGQQKI
4. TKFRISLGLPVGAIM

1. 18
2. 7.5
3. 5
4. 30

Return reported SPOT peptide array binding signal intensity values for all items listed beneath this line.
1. PAPPPPPRASRPTPN
2. MAMRPIPPLPTESEY
3. RPPRPPPKPLHLRTE
4. SNRRPVPRRPSQPLN
5. ATKSASPTLPTRRSR

[3.5, 19.5, 8, 8.5, 13.5]
